Measured values drawn from patent US20050256161A1 for this set.

Kindly state pIC50 for each of the entries shown.
target: human MCH 1 receptor (hMCH1R) (Homo sapiens, UniProt Q99705); construct: expressed in transfected cells; host or cells: HEK 293 (membrane preparation); assay: Ligand binding assay (125I native-MCH), hMCH; conditions: hMCH1R expressed in HEK 293, membranes, 0.2 nM 125I native-MCH; threshold 100 μM or less
Sequence (Q99705 whole entry): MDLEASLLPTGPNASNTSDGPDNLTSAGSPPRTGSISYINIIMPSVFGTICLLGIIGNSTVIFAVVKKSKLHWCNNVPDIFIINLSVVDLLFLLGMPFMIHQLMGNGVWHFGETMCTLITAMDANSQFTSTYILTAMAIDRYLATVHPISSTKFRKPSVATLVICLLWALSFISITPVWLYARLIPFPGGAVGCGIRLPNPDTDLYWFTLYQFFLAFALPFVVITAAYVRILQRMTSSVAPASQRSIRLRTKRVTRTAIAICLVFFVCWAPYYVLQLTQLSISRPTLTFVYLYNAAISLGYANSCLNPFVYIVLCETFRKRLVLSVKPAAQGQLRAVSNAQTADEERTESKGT
pIC50: −log10 of the molar value.

Worked examples, 5 compounds total:
Cc1ccc(Oc2ccc(C(=O)NCCN3CCCC3)cc2NC(=O)Nc2ccccc2Cl)cc1C [Compound 41]
≥ 4.00
Cc1ccc(Oc2ccc(C(=O)NCCN3CCCC3)cc2NC(=O)Nc2c(C(C)C)cccc2C(C)C)cc1C [Compound 37]
≥ 4.00
Cc1ccc(Oc2ccc(C(=O)NCCN3CCCC3)cc2NC(=O)Nc2cccc3ccccc23)cc1C [Compound 36]
≥ 4.00
Cc1ccc(Oc2ccc(C(=O)NCCN3CCCC3)cc2NC(=O)NCc2ccccc2)cc1C [Compound 6]
≥ 4.00
Cc1ccc(Oc2ccc(C(=O)NCCN3CCCC3)cc2NC(=O)Nc2ccccc2)cc1C [Compound 1]
≥ 4.00

// each compound listed below needs its pIC50
1. Cc1ccc(Oc2ccc(C(=O)NCCN3CCCC3)cc2NC(=O)Nc2ccc(-c3ccccc3)cc2)cc1C [Compound 33]
2. O=C(NCCN1CCCC1)c1ccc(Oc2ccccc2)cc1 [Compound 8]

Ans.
≥ 4.00
≥ 4.00

For Cc1ccc(Oc2ccc(C(=O)NCCN3CCCC3)cc2NC(=O)Nc2ccc(Br)cc2)cc1C [Compound 38] the compound record lists pIC50 as ≥ 4.00
